MEASUREMENT TARGET: Full-length, GST-tagged, human CaMKIIδ (Homo sapiens, UniProt Q13557)
Construct: Full-Length, Glutathione-S-Transferase(GST)-Tagged, Human CaMKIIδ was purchased from Carna Biosciences; purchased Carna Biosciences 02-111
Sequence (Q13557 1-478 isoform Q13557-12): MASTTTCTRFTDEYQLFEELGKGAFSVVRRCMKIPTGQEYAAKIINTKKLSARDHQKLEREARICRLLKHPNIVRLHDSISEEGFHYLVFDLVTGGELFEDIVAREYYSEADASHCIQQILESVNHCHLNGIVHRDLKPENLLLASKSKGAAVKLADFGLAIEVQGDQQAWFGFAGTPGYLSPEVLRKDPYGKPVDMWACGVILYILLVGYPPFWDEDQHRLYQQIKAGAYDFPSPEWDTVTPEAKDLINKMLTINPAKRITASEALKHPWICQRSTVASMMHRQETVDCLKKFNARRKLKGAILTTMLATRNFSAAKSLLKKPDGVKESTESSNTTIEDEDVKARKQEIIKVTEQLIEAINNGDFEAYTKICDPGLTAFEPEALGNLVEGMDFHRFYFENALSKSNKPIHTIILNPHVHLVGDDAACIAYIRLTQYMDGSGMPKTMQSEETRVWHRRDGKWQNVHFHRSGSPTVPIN
EXPERIMENTAL DETAILS: CaMKIIδ binding assay (TR-FRET with BODIPY-labeled probe ligand)
RUN PARAMETERS: Table 2; CaMKIIδ binding assay, activity given as class A/B/C
Listed here: items and their measured IC50.

COMPOUND	IC50
CC(O)Cn1cc(Nc2ncc(-c3ccc(Cl)c(O[C@@H](C)Cn4cnnn4)c3)cn2)c(OCC(F)(F)F)n1 (stereo partly shown)	< 10 nM
C[C@@H](Cn1cnnn1)Oc1cc(-c2cnc(Nc3snnc3-c3ccc(Cl)cc3)nc2)ccc1Cl	≥ 100 nM
C[C@@H](Cn1cnnn1)Oc1cc(-c2cnc(Nc3sc4c(c3C#N)CCC4)nc2)ccc1Cl	≥ 100 nM
C[C@@H](Cn1cnnn1)Oc1cc(-c2cnc(Nc3cn([C@@H](C)C(=O)N4CCOCC4)nc3C(F)(F)F)nc2)ccc1Cl	10 to 100 nM
C[C@@H](Cn1cnnn1)Oc1cc(-c2cnc(Nc3cn([C@H]4CC[C@@H](N5CCOCC5)CC4)nc3OC[C@@H]3CC3(F)F)nc2)ccc1Cl	< 10 nM
CCn1ncc(Nc2ncc(-c3ccc(Cl)c(O[C@@H](C)Cn4cnnn4)c3)cn2)c1C(=O)O	10 to 100 nM
CCn1ncc(Nc2ncc(-c3ccc(Cl)c(O[C@@H](C)Cn4cnnn4)c3)cn2)c1C(=O)N1CCOCC1	≥ 100 nM
